# Test system: normal primary NK cells, pool 3 (3 donors) (IL-2 2.5 ng/mL)
# Run description: percent inhibition of viability; higher = more inhibition
# Experimental setup: 72 h; 100 nM
Value type: percent inhibition of viability (%)
Answers are plain numbers, in %.

Examples from the recorded data:
[
  {
    "Compound": "CCOC(=O)CCNc1cc(N2CCc3ccccc3CC2)nc(-c2ccccn2)n1 [GSK-J4] (max concentration tested 100000 nM)",
    "Unit name": "%",
    "percent inhibition of viability": -5.17
  },
  {
    "Compound": "Cn1cc(C2=Nc3cc(NC(=O)C(N)C4CCCCC4)cc4c3C2=CNNC4=O)cn1 (stereo not drawn) (max concentration tested 10000 nM)",
    "Unit name": "%",
    "percent inhibition of viability": 9.48
  }
]

We now examine a further compound.
Recorded percent inhibition of viability for CN(C)C(=O)c1cc2cnc(Nc3ccc(N4CCNCC4)cn3)nc2n1C1CCCC1 [Ribociclib] (max concentration tested 10000 nM) , please?
6

---

# Tested on: NK-YS (IL-2 2.5 ng/mL)
# Run description: percent inhibition of viability; higher = more inhibition
# Experimental setup: 72 h; 100 nM
Value type: percent inhibition of viability (%)
Give bare numbers, in %.

Examples from the recorded data:
[
  {
    "Compound": "C[C@@H]1C[C@H]2O[C@@H]2/C=C\\C=C\\C(=O)Cc2c(Cl)c(O)cc(O)c2C(=O)O1 [Radicicol] (max concentration tested 10000 nM)",
    "Value type": "percent inhibition of viability",
    "Unit name": "%",
    "Value observed": 24.6
  },
  {
    "Compound": "C=CC(=O)Nc1cc2c(Nc3ccc(F)c(Cl)c3)ncnc2cc1OCCCN1CCOCC1 [Canertinib] (max concentration tested 10000 nM)",
    "Value type": "percent inhibition of viability",
    "Unit name": "%",
    "Value observed": -0.2
  },
  {
    "Compound": "Cn1cnc2c(F)c(Nc3ccc(Br)cc3Cl)c(C(=O)NOCCO)cc21 [Selumetinib] (max concentration tested 10000 nM)",
    "Value type": "percent inhibition of viability",
    "Unit name": "%",
    "Value observed": 0.1
  },
  {
    "Compound": "CNC(=O)c1ccc(N2C(=S)N(c3ccc(C#N)c(C(F)(F)F)c3)C(=O)C2(C)C)cc1F [Enzalutamide] (max concentration tested 10000 nM)",
    "Value type": "percent inhibition of viability",
    "Unit name": "%",
    "Value observed": -3.22
  },
  {
    "Compound": "COc1cc2ncnc(Nc3ccc(F)c(Cl)c3)c2cc1OCCCN1CCOCC1 [Gefitinib] (max concentration tested 10000 nM)",
    "Value type": "percent inhibition of viability",
    "Unit name": "%",
    "Value observed": 7.36
  },
  {
    "Compound": "O=c1[nH]c(=O)n([C@H]2C[C@H](O)[C@@H](CO)O2)cc1F [Floxuridine] (max concentration tested 10000 nM)",
    "Value type": "percent inhibition of viability",
    "Unit name": "%",
    "Value observed": 73.5
  },
  {
    "Compound": "CCS(=O)(=O)c1cccc(-c2cc(C(=O)NC3CCN(C)CC3)c(C)c3[nH]c4ncc(C)cc4c23)c1 [TAK-901] (max concentration tested 1000 nM)",
    "Value type": "percent inhibition of viability",
    "Unit name": "%",
    "Value observed": 65.6
  },
  {
    "Compound": "CCc1nc(-c2cccc(C)c2)c(-c2ccnc(NC(=O)c3ccccc3)c2)s1 [TAK-715] (max concentration tested 10000 nM)",
    "Value type": "percent inhibition of viability",
    "Unit name": "%",
    "Value observed": 5.2
  },
  {
    "Compound": "C=CC[C@@H]1/C=C(\\C)C[C@H](C)C[C@H](OC)[C@H]2O[C@@](O)(C(=O)C(=O)N3CCCC[C@H]3C(=O)O[C@H](/C(C)=C/[C@@H]3CC[C@@H](O)[C@H](OC)C3)[C@H](C)[C@@H](O)CC1=O)[C@H](C)C[C@@H]2OC [Tacrolimus] (max concentration tested 10000 nM)",
    "Value type": "percent inhibition of viability",
    "Unit name": "%",
    "Value observed": 1.86
  },
  {
    "Compound": "CC(=O)c1c(C)c2cnc(Nc3ccc(N4CCNCC4)cn3)nc2n(C2CCCC2)c1=O [Palbociclib] (max concentration tested 10000 nM)",
    "Value type": "percent inhibition of viability",
    "Unit name": "%",
    "Value observed": 17.3
  }
]

Recorded percent inhibition of viability for COc1cc(Nc2ncc3c(n2)-c2ccc(Cl)cc2C(c2c(F)cccc2OC)=NC3)ccc1C(=O)O [Alisertib] (max concentration tested 10000 nM) , please?
67.4

---

# Tested on: IMC-1 (IL-2 20 ng/mL)
# Run description: percent inhibition of viability; higher = more inhibition
# Experimental setup: 72 h; 10000 nM
Under this convention, Criterion met denotes percent inhibition of viability strictly below 20% and Criterion not met denotes percent inhibition of viability at or above 20%.

Would you kindly verify if percent inhibition of viability of Cn1cnc2c(F)c(Nc3ccc(Br)cc3Cl)c(C(=O)NOCCO)cc21 [Selumetinib] (max concentration tested 10000 nM) is strictly less than 20%?
Criterion met

Would you kindly verify if percent inhibition of viability of CN(C)c1nc(N(C)C)nc(N(C)C)n1 [Altretamine] (max concentration tested 10000 nM) is strictly less than 20%?
Criterion met

Would you kindly verify if percent inhibition of viability of COc1cc2c(cc1O)CC[C@@H]1[C@@H]2CC[C@]2(C)[C@@H](O)CC[C@@H]12 [2-methoxyestradiol] (max concentration tested 10000 nM) is strictly less than 20%?
Criterion not met

Would you kindly verify if percent inhibition of viability of CNC(=O)c1cccc2cc(Oc3ccnc4cc(OCC5(N)CC5)c(OC)cc34)ccc12 [Lucitanib] (max concentration tested 10000 nM) is strictly less than 20%?
Criterion met

Would you kindly verify if percent inhibition of viability of COc1cc(O)c2c(c1)/C=C/C[C@H](O)[C@H](O)C(=O)/C=C\C[C@H](C)OC2=O [(5Z)-7-Oxozeaenol] (max concentration tested 10000 nM) is strictly less than 20%?
Criterion not met

Would you kindly verify if percent inhibition of viability of O=C1NC(=O)/C(=C/c2ccc3nccc(-c4ccncc4)c3c2)S1 (max concentration tested 10000 nM) is strictly less than 20%?
Criterion not met

---

# Test system: IMC-1 (IL-2 20 ng/mL)
# Run description: percent inhibition of viability; higher = more inhibition
# Experimental setup: 72 h; 100 nM
Assign percent inhibition of viability to each entry below.
Answers are plain numbers, in %.

[
  {
    "Compound": "CN(c1ncccc1CNc1nc(Nc2ccc3c(c2)CC(=O)N3)ncc1C(F)(F)F)S(C)(=O)=O (max concentration tested 10000 nM)",
    "percent inhibition of viability (%)": 1.51
  },
  {
    "Compound": "O=c1cc(N2CCOCC2)oc2c(-c3ccccc3)cccc12 (max concentration tested 100000 nM)",
    "percent inhibition of viability (%)": -3.31
  },
  {
    "Compound": "CC[C@]1(O)C[C@@H]2CN(CCc3c([nH]c4ccccc34)[C@@](C(=O)OC)(c3cc4c(cc3OC)N(C)[C@H]3[C@@](O)(C(=O)OC)[C@H](OC(C)=O)[C@]5(CC)C=CCN6CC[C@]43[C@@H]65)C2)C1 [Vinblastine] (max concentration tested 1000 nM)",
    "percent inhibition of viability (%)": 101
  },
  {
    "Compound": "O=C(O)c1ccc(O)c2ncccc12 [IOX-1] (max concentration tested 100000 nM)",
    "percent inhibition of viability (%)": -5.78
  },
  {
    "Compound": "Cc1cc(C(C)Nc2ccccc2)c2nc(N3CCOCC3)cc(=O)n2c1 (stereo not drawn) [TGX-221] (max concentration tested 10000 nM)",
    "percent inhibition of viability (%)": -4.93
  }
]

Parameters: items (list). Returns: percent inhibition of viability for each item.
1. Cn1c(=O)c(F)c(Nc2ccc(I)cc2F)c2c(=O)n(C[C@@H](O)CO)cnc21 [TAK-733] (max concentration tested 1000 nM)
2. Cn1cnc2c(F)c(Nc3ccc(Br)cc3Cl)c(C(=O)NOCCO)cc21 [Selumetinib] (max concentration tested 10000 nM)
3. COc1cccc2c1c(O)c(C(=O)N(C)c1ccc(C(F)(F)F)cc1)c(=O)n2C [Tasquinimod] (max concentration tested 10000 nM)

1: 3.83; 2: -5.26; 3: 6.03

---

Assign percent inhibition of viability to each entry below.
# Tested on: normal NK cells expanded with K562-aAPC
# Run description: percent inhibition of viability; higher = more inhibition
# Experimental setup: 72 h; IL-2 2.5 ng/mL; 1000 nM
One number for each entry, in %.

[
  {
    "Molecule": "Cc1cc(C(=O)NOCCO)c(Nc2ccc(I)cc2F)n(C)c1=O [AZD-8330] (max concentration tested 10000 nM)",
    "Experimental system": "normal NK cells expanded with K562-aAPC",
    "percent inhibition of viability (%)": 1.49
  },
  {
    "Molecule": "CC(=O)NCC(=O)N1[C@@H]2CC[C@H]1c1ccc(Nc3ncc(C(F)(F)F)c(NC4CCC4)n3)cc12 (max concentration tested 10000 nM)",
    "Experimental system": "normal NK cells expanded with K562-aAPC",
    "percent inhibition of viability (%)": 91
  },
  {
    "Molecule": "COC(=O)c1ccc2c(c1)NC(=O)/C2=C(\\Nc1ccc(N(C)C(=O)CN2CCN(C)CC2)cc1)c1ccccc1 [Nintedanib] (max concentration tested 10000 nM)",
    "Experimental system": "normal NK cells expanded with K562-aAPC",
    "percent inhibition of viability (%)": 31
  },
  {
    "Molecule": "Cn1cc(C2=Nc3cc(NC(=O)C(N)C4CCCCC4)cc4c3C2=CNNC4=O)cn1 (configuration not stated) (max concentration tested 10000 nM)",
    "Experimental system": "normal NK cells expanded with K562-aAPC",
    "percent inhibition of viability (%)": 53.4
  },
  {
    "Molecule": "COc1cccc2c1C(=O)c1c(O)c3c(c(O)c1C2=O)C[C@@](O)(C(C)=O)C[C@@H]3O[C@H]1C[C@H](N)[C@H](O)[C@H](C)O1 [Daunorubicin] (max concentration tested 1000 nM)",
    "Experimental system": "normal NK cells expanded with K562-aAPC",
    "percent inhibition of viability (%)": 101
  }
]

Parameters: items (list). Returns: percent inhibition of viability for each item.
1. O=C(O)C(=O)O.[NH-][C@@H]1CCCC[C@H]1[NH-].[Pt+2] [Oxaliplatin] (max concentration tested 100000 nM)
2. COC(=O)C[C@](O)(CCCC(C)(C)O)C(=O)O[C@@H]1C(OC)=C[C@]23CCCN2CCc2cc4c(cc2[C@H]13)OCO4 [Omacetaxine] (max concentration tested 10000 nM)
3. Cc1cc(Nc2cc(CN3CCOCC3)c3nc(C)c(Cc4ccc(Cl)cc4F)n3n2)n[nH]1 [Gandotinib] (max concentration tested 10000 nM)
4. O=C(/C=C/c1cccnc1)NCCCCC1CCN(C(=O)c2ccccc2)CC1 [Daporinad] (max concentration tested 1000 nM)
5. CC(=O)N(O)CCCCCNC(=O)CCC(=O)N(O)CCCCCNC(=O)CCC(=O)N(O)CCCCCN [Deferoxamine] (max concentration tested 10000 nM)
6. FC(F)(F)c1ccc(/C=C/c2nc(COc3ccc(CCCCn4ccnn4)cc3)co2)cc1 [Mubritinib] (max concentration tested 1000 nM)

1: 21.3; 2: 101; 3: 89.6; 4: 99.5; 5: 22.8; 6: 14.1

Observed percent inhibition of viability on normal NK cells expanded with K562-aAPC for COc1ncc(-c2ccc3nccc(-c4ccnnc4)c3c2)cc1NS(=O)(=O)c1ccc(F)cc1F [Omipalisib] (max concentration tested 1000 nM) , please.
55.5
